Quick reference for Rising of Body Temperature among some compounds
# PROTOCOL_SUMMARY: fervescence activity by intracerebroventricular injection (rising of body temperature)
# Assay type: in vivo, Wister male rats
# APPLIED_CONDITIONS: 400 ng in 3 μl into lateral ventricle, urethane-anesthetized rats, rectal temperature
# Procedure: fervescence activity by intracerebroventricular injection Wister male rats (8 weeks old) were used as test animals. […] Each test drug was dissolved into an artificial cerebrospinal fluid and 400 ng as drug in 3 μl was injected through the injection cannula for 15 seconds. […] Body temperature was measured continuously at the rectum. […]

Which Rising of Body Temperature reading was recorded for the compound CCCCCC(=O)CC[C@H]1[C@H](O)CC(=O)[C@@H]1CCCCCCC(=O)OCC [compound 2] ?
+0.4 °C

----------
# PROTOCOL_SUMMARY: fervescence activity by intravenous injection (rising of body temperature), 1 mg/kg
# Type: in vivo, Wister male rats
# APPLIED_CONDITIONS: 1 mg/kg intravenous, urethane-anesthetized rats
PROPERTY_NAME: Rising of Body Temperature

See these solved cases before continuing.
MOLECULE	Rising of Body Temperature
CCCCC(F)C(=O)CC[C@H]1[C@H](C)CC(=O)[C@@H]1CC(=O)CCCCC(=O)OCC (stereo partly drawn) [compound 21]	+1.1 °C
COCCCCC(C)(C)C(=O)CC[C@H]1[C@H](O)CC(=O)[C@@H]1C/C=C\CCCC(=O)OC [compound 50]	+0.2 °C
CCCCC(C)C(=O)CC[C@H]1[C@H](O)CC(=O)[C@@H]1C/C=C\CCCC(=O)OCC (stereo partly drawn) [compound 33]	+0.9 °C
CCCCCC(=O)CC[C@H]1[C@H](O)CC(=O)[C@@H]1C/C=C\CCCC(=O)OCc1ccccc1 [compound 27]	+0.3 °C
CCCCC(C)(C)C(=O)CC[C@H]1[C@H](O)CC(=O)[C@@H]1CC(=O)CCCCC(=O)OCC [compound 13]	+1.1 °C
CCCCCC(=O)CC[C@H]1[C@H](O)CC(=O)[C@@H]1CC(=O)CCCCC(=O)OCC (relative stereo) [compound 9]	+0.7 °C
CCCCC(C)C(=O)CC[C@H]1[C@H](O)CC(=O)[C@@H]1C/C=C\CC(C)CC(=O)OC (stereo partly drawn) [compound 34]	+1.0 °C
CCCCCC(=O)CC[C@H]1[C@H](O)CC(=O)[C@@H]1C/C=C\CCCC(=O)OCCCC [compound 26]	+0.2 °C

Which Rising of Body Temperature reading was recorded for the molecule CCCCC(F)C(=O)CC[C@H]1[C@H](O)CC(=O)[C@@H]1C/C=C\CCCC(=O)OC (stereo partly drawn) [compound 39] ?
+0.9 °C

Which Rising of Body Temperature reading was recorded for the molecule CCCCCC(=O)CC[C@H]1[C@H](C)CC(=O)[C@@H]1CC(=O)CCCCC(=O)OCC [compound 20] ?
+1.3 °C

Which Rising of Body Temperature reading was recorded for the molecule COC(=O)CCCCC(=O)C[C@H]1C(=O)C[C@@H](CO)[C@@H]1CCC(=O)CCCC(C)C [compound 17] ?
+0.4 °C

Which Rising of Body Temperature reading was recorded for the molecule CCCCCC(F)C(=O)CC[C@H]1[C@H](O)CC(=O)[C@@H]1C/C=C\CCCC(=O)OC (stereo partly drawn) [compound 41] ?
+0.8 °C

Which Rising of Body Temperature reading was recorded for the molecule CCC[C@H](C)CC(=O)CC[C@H]1[C@H](O)CC(=O)[C@@H]1C/C=C\CCCC(=O)OC [compound 44] ?
+0.2 °C

Which Rising of Body Temperature reading was recorded for the molecule CCCCCC(=O)CC[C@H]1[C@H](O)CC(=O)[C@@H]1C/C=C\CCCC(=O)OC [compound 23] ?
+1.0 °C

Which Rising of Body Temperature reading was recorded for the molecule CCCCCC(=O)CC[C@H]1[C@H](O)CC(=O)[C@@H]1C/C=C\CCCC(=O)O [compound 22] ?
0 °C

Which Rising of Body Temperature reading was recorded for the molecule CCCCC(F)C(=O)CC[C@H]1[C@H](C)CC(=O)[C@@H]1C/C=C\CCCC(=O)OCC (stereo partly drawn) [compound 42] ?
+1.4 °C

Which Rising of Body Temperature reading was recorded for the molecule CCCCC(F)C(=O)CC[C@H]1[C@H](O)CC(=O)[C@@H]1CC(=O)CCCCC(=O)OCC (stereo partly drawn) [compound 14] ?
+1.0 °C

Which Rising of Body Temperature reading was recorded for the molecule CCCCCC(=O)CC[C@H]1[C@H](O)CC(=O)[C@@H]1CC(=O)CCCCC(=O)OC [compound 7] ?
+0.8 °C

Which Rising of Body Temperature reading was recorded for the molecule CCCCCC(=O)CC[C@H]1[C@H](O)CC(=O)[C@@H]1C/C=C\CC=CC(=O)OC [compound 29] ?
+1.0 °C
